Target: Peroxisome proliferator-activated receptor gamma (Homo sapiens)
Sequence (P37231 whole entry): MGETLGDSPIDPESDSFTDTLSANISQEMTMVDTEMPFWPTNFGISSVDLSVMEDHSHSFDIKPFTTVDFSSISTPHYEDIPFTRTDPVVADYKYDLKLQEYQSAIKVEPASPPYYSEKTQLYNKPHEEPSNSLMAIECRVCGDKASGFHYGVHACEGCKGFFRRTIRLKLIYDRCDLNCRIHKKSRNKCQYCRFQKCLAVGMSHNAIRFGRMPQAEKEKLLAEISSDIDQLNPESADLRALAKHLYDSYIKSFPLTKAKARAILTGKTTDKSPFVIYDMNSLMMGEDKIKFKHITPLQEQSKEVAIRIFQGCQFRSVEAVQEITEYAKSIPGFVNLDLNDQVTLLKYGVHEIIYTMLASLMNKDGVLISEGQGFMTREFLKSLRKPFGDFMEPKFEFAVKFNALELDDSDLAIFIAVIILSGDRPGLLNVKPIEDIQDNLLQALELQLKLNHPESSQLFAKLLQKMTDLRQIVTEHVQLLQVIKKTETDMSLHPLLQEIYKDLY
pEC50: −log10 of the molar value.
Assay metric: pEC50

Exercise: Recorded pEC50 for COc1cccc(-c2ccc(NC(=O)C3=C(C(=O)O)CCC3)c(F)c2)c1 [VIDOFLUDIMUS] , please?
Solution: < 5.00

* * *

target: Thyroid hormone receptor alpha (Homo sapiens, UniProt P10827)
Sequence (P10827 whole entry): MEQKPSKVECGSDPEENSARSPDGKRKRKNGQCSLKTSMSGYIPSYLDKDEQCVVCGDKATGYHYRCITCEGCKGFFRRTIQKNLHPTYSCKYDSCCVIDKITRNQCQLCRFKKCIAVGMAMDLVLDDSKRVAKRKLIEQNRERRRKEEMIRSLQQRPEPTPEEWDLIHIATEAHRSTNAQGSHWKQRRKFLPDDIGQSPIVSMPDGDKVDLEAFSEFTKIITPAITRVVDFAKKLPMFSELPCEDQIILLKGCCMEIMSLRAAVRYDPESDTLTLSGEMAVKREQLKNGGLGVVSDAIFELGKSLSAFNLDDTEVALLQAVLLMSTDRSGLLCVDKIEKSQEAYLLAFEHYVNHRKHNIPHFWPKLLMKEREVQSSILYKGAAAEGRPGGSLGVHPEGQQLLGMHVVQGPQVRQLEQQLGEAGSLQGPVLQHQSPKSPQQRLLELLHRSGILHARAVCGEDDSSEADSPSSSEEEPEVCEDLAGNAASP
Assay metric: EC50

Exercise: Recorded EC50 for COc1cccc(-c2ccc(NC(=O)C3=C(C(=O)O)CCC3)c(F)c2)c1 , please?
Solution: > 10 µM

* * *

biological target: Retinoic acid receptor RXR-alpha (Homo sapiens)
Sequence (P19793 whole entry): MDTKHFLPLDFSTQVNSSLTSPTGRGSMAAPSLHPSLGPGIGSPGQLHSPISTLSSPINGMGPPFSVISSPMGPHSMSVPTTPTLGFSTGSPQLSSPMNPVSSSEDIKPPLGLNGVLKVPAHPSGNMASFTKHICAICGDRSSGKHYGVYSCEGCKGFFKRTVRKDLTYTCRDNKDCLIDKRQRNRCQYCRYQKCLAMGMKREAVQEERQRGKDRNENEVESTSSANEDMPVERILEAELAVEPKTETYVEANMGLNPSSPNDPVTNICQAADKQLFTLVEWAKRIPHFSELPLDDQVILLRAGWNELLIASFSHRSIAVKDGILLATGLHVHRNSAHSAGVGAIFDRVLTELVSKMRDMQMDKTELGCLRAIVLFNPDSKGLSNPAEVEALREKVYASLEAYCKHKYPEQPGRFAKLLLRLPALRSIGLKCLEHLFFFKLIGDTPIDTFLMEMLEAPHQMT
Assay metric: EC50

Exercise: Recorded EC50 for COc1cccc(-c2ccc(NC(=O)C3=C(C(=O)O)CCC3)c(F)c2)c1 , please?
Solution: > 10 µM

* * *

settings: rat, in vivo, po, 5 mg/kg, 8 h
Assay metric: Cmax (µM)
Give the value in µM but do not write µM after it.

Exercise: Recorded Cmax for C#CCOc1cccc(-c2ccc(NC(=O)C3=C(C(=O)O)CCC3)c(F)c2)c1 , please?
Solution: 56
